# target-or-system: human sphingosine-1-phosphate receptor 1 (S1P1) (Homo sapiens)
# Sequence (P21453 whole entry): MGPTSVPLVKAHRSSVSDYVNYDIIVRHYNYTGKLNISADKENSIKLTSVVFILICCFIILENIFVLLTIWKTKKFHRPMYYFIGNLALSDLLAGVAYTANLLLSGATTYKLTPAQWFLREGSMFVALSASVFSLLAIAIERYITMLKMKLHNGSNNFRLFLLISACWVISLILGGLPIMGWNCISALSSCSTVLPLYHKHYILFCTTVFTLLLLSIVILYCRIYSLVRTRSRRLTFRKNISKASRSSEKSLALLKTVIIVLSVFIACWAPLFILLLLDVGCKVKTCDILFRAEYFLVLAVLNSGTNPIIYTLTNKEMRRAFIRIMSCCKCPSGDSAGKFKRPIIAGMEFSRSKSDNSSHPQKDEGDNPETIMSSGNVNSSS
# measurement-notes: Inhibition of cAMP production (HTRF cAMP HiRange), S1P1 CHO-K1 cells
# Assay type: cell-based
# test-settings: CHO-K1; inhibition of cAMP production; efficacy normalized to maximum efficacy of fingolimod; read-out: hS1P1 CAMP SPAN
Task for the reader: assign each of the following compounds its reported Emax.

Answered cases to consult:
>>> result("FC(F)(F)c1cccc(-c2nc(-c3ccc4c(c3)nnn4C3CCCC3)no2)c1 [Compound 12]")
"< 75%"
>>> result("Cc1ccccc1-c1noc(-c2ccc3c(c2)nnn3C(C)(C)C)n1 [Compound 59]")
"> 75%"
>>> result("CCC1(CC)CC(=O)c2cc(-c3nc(-c4cccc(C)c4)no3)ccc2O1 [Compound 225]")
"> 75%"

Dear reader, for each entry below, please note its Emax.
1. COc1cnc(-c2nc(-c3ccc4c(c3)nnn4C(C)C)no2)cn1 [Compound 51]
2. CC(C)n1nnc2cc(-c3ncc(-c4ccccc4F)s3)ccc21 [Compound 63]
3. COc1ccc(-c2noc(-c3ccc4c(c3)nnn4C(C)C)n2)c(C)c1 [Compound 55]
4. CC(C)n1nnc2cc(-c3noc(-c4ccc(-c5ccccc5)cc4)n3)ccc21 [Compound 248]
5. CCC1(CC)CC(=O)c2cc(-c3nc(-c4ccc5c(c4)nnn5C(C)C)ns3)ccc2O1 [Compound 29]

1. < 75%
2. < 75%
3. > 75%
4. < 75%
5. < 75%

Dear reader, for each entry below, please note its Emax.
1. CC(C)n1nnc2cc(-c3nc(-c4ccccc4F)co3)ccc21 [Compound 21]
2. CSc1cccc(-c2nc(-c3ccc4c(c3)nnn4C3CCCC3)no2)c1 [Compound 47]
3. CCC1(CC)CC(=O)c2cc(-c3nnc(-c4ccccc4OC)o3)ccc2O1 [Compound 300]
4. CCC1(CC)CC(=O)c2cc(-c3nc(-c4ccc(N(C)C)cc4)no3)ccc2O1 [Compound 60]
5. Cc1cc(C)cc(-c2noc(-c3ccc4c(c3)nnn4C3CCOCC3)n2)c1 [Compound 93]

> 75%
< 75%
> 75%
< 75%
< 75%
